log10(IC50) values recorded for Melanocortin receptor 4 (Homo sapiens)
All values: log10 IC50 [nM].

Please review the following examples before continuing.
# compound, log10(IC50)
rows = [
    ("CC1(CC#N)CCN(C(=O)[C@H](Cc2ccc(Cl)cc2)NC(=O)[C@H]2Cc3ccccc3CN2)CC1", 3.17),
    ("CCCCCCC1(Cc2nnnn2C)CCN(C(=O)[C@H](Cc2ccc(Cl)cc2)NC(=O)[C@H]2Cc3ccccc3CN2)CC1", 0.60),
    ("CC(C)CC1(Cc2nnnn2C)CCN(C(=O)[C@H](Cc2ccc(Cl)cc2)NC(=O)[C@H]2Cc3ccccc3CN2)CC1", 0.78),
    ("Cn1nnnc1CC1(c2ccc(Cl)cc2)CCN(C(=O)[C@H](Cc2ccc(Cl)cc2)NC(=O)[C@H]2Cc3ccccc3CN2)CC1", 2.05),
    ("CN1CCN[C@@H](C(=O)N[C@@H](Cc2ccc(F)cc2)C(=O)N2CCC(C(=O)NC(C)(C)C)(C3C=CCCC3)CC2)C1 (some centres undefined)", 1.81),
]

Find the recorded log10(IC50) belonging to CCC(C)C1(Cc2nnnn2C)CCN(C(=O)[C@H](Cc2ccc(Cl)cc2)NC(=O)[C@H]2Cc3ccccc3CN2)CC1 (some centres undefined) and report it.
0.57

Find the recorded log10(IC50) belonging to "N#CCC1(C2CCCCC2)CCN(C(=O)[C@H](Cc2ccc(Cl)cc2)NC(=O)[C@H]2Cc3ccccc3CN2)CC1" and report it.
0.83

Find the recorded log10(IC50) belonging to "Cn1nnnc1CC1(CC(C)(C)C)CCN(C(=O)[C@H](Cc2ccc(Cl)cc2)NC(=O)[C@H]2Cc3ccccc3CN2)CC1" and report it.
0.56

Find the recorded log10(IC50) belonging to "Cn1nnnc1CC1(C2CCOCC2)CCN(C(=O)[C@H](Cc2ccc(Cl)cc2)NC(=O)[C@H]2Cc3ccccc3CN2)CC1" and report it.
1.51

Find the recorded log10(IC50) belonging to "N#CCC1(C2CC2)CCN(C(=O)[C@H](Cc2ccc(Cl)cc2)NC(=O)[C@H]2Cc3ccccc3CN2)CC1" and report it.
2.24

Find the recorded log10(IC50) belonging to "CC(C)C1(CC#N)CCN(C(=O)[C@H](Cc2ccc(Cl)cc2)NC(=O)[C@H]2Cc3ccccc3CN2)CC1" and report it.
1.80

Find the recorded log10(IC50) belonging to "Cn1nnnc1CC1(Cc2ccccc2)CCN(C(=O)[C@H](Cc2ccc(Cl)cc2)NC(=O)[C@H]2Cc3ccccc3CN2)CC1" and report it.
1.72

Find the recorded log10(IC50) belonging to "CN1CCN[C@@H](C(=O)N[C@@H](Cc2ccc(F)cc2)C(=O)N2CCC(C(=O)NC(C)(C)C)(C3CCCCC3)CC2)C1" and report it.
1.13

Find the recorded log10(IC50) belonging to "CCC1(CC#N)CCN(C(=O)[C@H](Cc2ccc(Cl)cc2)NC(=O)[C@H]2Cc3ccccc3CN2)CC1" and report it.
2.88

---

Measured Activity by item
Molecular target: UniProt:P32245
Assay: […] at human MC4R assessed as stimulation of cAMP production
Assay type: functional
Set-up: concentration or dose not given beside the values
Answer format: numeric, % implied, no suffix.

Please review the following examples before continuing.
# compound, unit_of_measurement, Activity
records = [
    ("CC(C)C1(CC#N)CCN(C(=O)[C@H](Cc2ccc(Cl)cc2)NC(=O)[C@H]2Cc3ccccc3CN2)CC1", "%", 32),
    ("Cn1nnnc1CC1(Cc2ccccc2)CCN(C(=O)[C@H](Cc2ccc(Cl)cc2)NC(=O)[C@H]2Cc3ccccc3CN2)CC1", "%", 70),
    ("CN1CCN[C@@H](C(=O)N[C@@H](Cc2ccc(F)cc2)C(=O)N2CCC(C(=O)NC(C)(C)C)(C3C=CC(=O)CC3)CC2)C1 (stereo partly specified)", "%", 59),
]

Find the recorded Activity belonging to CC1CCC(C2(C(=O)NC(C)(C)C)CCN(C(=O)[C@H](Cc3ccc(F)cc3)NC(=O)[C@H]3CN(C)CCN3)CC2)CC1 (stereo partly specified) and report it.
81

Find the recorded Activity belonging to "CCC(C)(C)C1(C(=O)NC(C)(C)C)CCN(C(=O)[C@H](Cc2ccc(F)cc2)NC(=O)[C@H]2CN(C)CCN2)CC1" and report it.
55

Find the recorded Activity belonging to "Cn1nnnc1CC1(c2ccc(Cl)cc2)CCN(C(=O)[C@H](Cc2ccc(Cl)cc2)NC(=O)[C@H]2Cc3ccccc3CN2)CC1" and report it.
100

---

Target: Melanocortin receptor 3 (Homo sapiens, UniProt P41968)
Sequence (P41968 whole entry): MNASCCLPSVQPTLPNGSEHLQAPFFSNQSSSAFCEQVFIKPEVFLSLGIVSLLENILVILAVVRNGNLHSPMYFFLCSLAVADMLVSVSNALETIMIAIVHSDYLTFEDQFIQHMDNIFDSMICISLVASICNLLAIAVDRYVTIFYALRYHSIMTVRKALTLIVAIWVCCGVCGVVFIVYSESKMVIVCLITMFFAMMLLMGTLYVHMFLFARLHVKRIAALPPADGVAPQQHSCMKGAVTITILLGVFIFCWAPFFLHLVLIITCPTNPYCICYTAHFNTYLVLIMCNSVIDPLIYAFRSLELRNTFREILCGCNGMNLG
Assay: […] at human MC3R assessed as stimulation of cAMP production
observed_property: pEC50
API: returns pEC50 as number; meaning -log10 of concentration in mol/L.

# molecule, pEC50
measured = [
    ("CCCCCCC1(Cc2nnnn2C)CCN(C(=O)[C@H](Cc2ccc(Cl)cc2)NC(=O)[C@H]2Cc3ccccc3CN2)CC1", 6.00),
    ("CN1CCN[C@@H](C(=O)N[C@@H](Cc2ccc(F)cc2)C(=O)N2CCC(C(=O)NC(C)(C)C)(C3CCC(C)(C)CC3)CC2)C1", 6.62),
    ("Cn1nnnc1CC1(C2CCOCC2)CCN(C(=O)[C@H](Cc2ccc(Cl)cc2)NC(=O)[C@H]2Cc3ccccc3CN2)CC1", 5.53),
    ("Cn1nnnc1CC1(c2ccc(Cl)cc2)CCN(C(=O)[C@H](Cc2ccc(Cl)cc2)NC(=O)[C@H]2Cc3ccccc3CN2)CC1", 6.36),
    ("CCC(C)C1(Cc2nnnn2C)CCN(C(=O)[C@H](Cc2ccc(Cl)cc2)NC(=O)[C@H]2Cc3ccccc3CN2)CC1 (some centres undefined)", 6.58),
    ("CC(C)CC1(Cc2nnnn2C)CCN(C(=O)[C@H](Cc2ccc(Cl)cc2)NC(=O)[C@H]2Cc3ccccc3CN2)CC1", 6.17),
    ("Cn1nnnc1CC1(Cc2ccccc2)CCN(C(=O)[C@H](Cc2ccc(Cl)cc2)NC(=O)[C@H]2Cc3ccccc3CN2)CC1", 6.08),
    ("Cn1nnnc1CC1(C2CCCCC2)CCN(C(=O)[C@H](Cc2ccc(Cl)cc2)NC(=O)[C@H]2Cc3ccccc3CN2)CC1", 6.94),
]

Find the recorded pEC50 belonging to CC1CCC(C2(C(=O)NC(C)(C)C)CCN(C(=O)[C@H](Cc3ccc(F)cc3)NC(=O)[C@H]3CN(C)CCN3)CC2)CC1 (some centres undefined) and report it.
6.64

---

Target: Melanocortin receptor 3 (Homo sapiens, UniProt P41968)
Experiment: […] at human MC3R assessed as stimulation of cAMP production
Type: functional
Parameters: concentration or dose not given beside the values
Each entry falls in a class defined on Activity; the bands are low range (below 30%), mid range (30% to below 40%), high range (40% or more)

Below are worked cases with known answers.
# compound, class
data = [
    ("CN1CCN[C@@H](C(=O)N[C@@H](Cc2ccc(F)cc2)C(=O)N2CCC(C(=O)NC(C)(C)C)(C3CCC(C)(C)CC3)CC2)C1", "high range"),
    ("Cn1nnnc1CC1(C2CCOCC2)CCN(C(=O)[C@H](Cc2ccc(Cl)cc2)NC(=O)[C@H]2Cc3ccccc3CN2)CC1", "low range"),
    ("Cn1nnnc1CC1(Cc2ccccc2)CCN(C(=O)[C@H](Cc2ccc(Cl)cc2)NC(=O)[C@H]2Cc3ccccc3CN2)CC1", "low range"),
    ("CC1CCC(C2(C(=O)NC(C)(C)C)CCN(C(=O)[C@H](Cc3ccc(F)cc3)NC(=O)[C@H]3CN(C)CCN3)CC2)CC1 (some centres undefined)", "mid range"),
    ("CCC(C)C1(Cc2nnnn2C)CCN(C(=O)[C@H](Cc2ccc(Cl)cc2)NC(=O)[C@H]2Cc3ccccc3CN2)CC1 (some centres undefined)", "mid range"),
    ("Cn1nnnc1CC1(c2ccc(Cl)cc2)CCN(C(=O)[C@H](Cc2ccc(Cl)cc2)NC(=O)[C@H]2Cc3ccccc3CN2)CC1", "high range"),
    ("CCCCCCC1(Cc2nnnn2C)CCN(C(=O)[C@H](Cc2ccc(Cl)cc2)NC(=O)[C@H]2Cc3ccccc3CN2)CC1", "mid range"),
    ("CC(C)CC1(Cc2nnnn2C)CCN(C(=O)[C@H](Cc2ccc(Cl)cc2)NC(=O)[C@H]2Cc3ccccc3CN2)CC1", "mid range"),
]

Lab note: next compound to report on.
Class? Entry: "Cn1nnnc1CC1(C2CCCCC2)CCN(C(=O)[C@H](Cc2ccc(Cl)cc2)NC(=O)[C@H]2Cc3ccccc3CN2)CC1"
high range

---

Biological target: Melanocortin receptor 4 (Homo sapiens)
Sequence (P32245 whole entry): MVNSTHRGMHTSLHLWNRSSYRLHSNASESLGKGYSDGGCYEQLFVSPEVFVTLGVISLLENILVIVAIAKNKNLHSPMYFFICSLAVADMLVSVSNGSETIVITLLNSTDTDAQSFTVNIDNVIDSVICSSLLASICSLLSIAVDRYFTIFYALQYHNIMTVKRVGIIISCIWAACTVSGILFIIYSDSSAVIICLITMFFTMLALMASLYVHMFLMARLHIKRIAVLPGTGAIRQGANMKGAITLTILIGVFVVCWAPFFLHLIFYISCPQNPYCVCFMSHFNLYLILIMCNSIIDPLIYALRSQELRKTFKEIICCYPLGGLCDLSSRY
Experiment: […] at human MC4R assessed as stimulation of cAMP production
Type: functional
Measured log10 of EC50 by item
All values: log10 EC50 [nM].

Please review the following examples before continuing.
# molecule, observed_property, measured_result
records = [
    ("CCC(C)(C)C1(C(=O)NC(C)(C)C)CCN(C(=O)[C@H](Cc2ccc(F)cc2)NC(=O)[C@H]2CN(C)CCN2)CC1", "log10 of EC50", 2.18),
    ("Cn1nnnc1CC1(c2ccc(Cl)cc2)CCN(C(=O)[C@H](Cc2ccc(Cl)cc2)NC(=O)[C@H]2Cc3ccccc3CN2)CC1", "log10 of EC50", 0.69),
    ("Cn1nnnc1CC1(CC(C)(C)C)CCN(C(=O)[C@H](Cc2ccc(Cl)cc2)NC(=O)[C@H]2Cc3ccccc3CN2)CC1", "log10 of EC50", 1.32),
    ("CC(C)C1(CC#N)CCN(C(=O)[C@H](Cc2ccc(Cl)cc2)NC(=O)[C@H]2Cc3ccccc3CN2)CC1", "log10 of EC50", 2.92),
]

# get_value(readout= log10 of EC50, system= Melanocortin receptor 4 (Homo sapiens)) for "CC(C)CC1(Cc2nnnn2C)CCN(C(=O)[C@H](Cc2ccc(Cl)cc2)NC(=O)[C@H]2Cc3ccccc3CN2)CC1"
1.10
